Would you mind telling me the reported TGI of each entry?
# Tested on: HS 578T breast
# measurement-description: NCI tumour cell line growth inhibition, 48 h
// units = µM; emit number, no label

Task item: Entry under review: Cc1ccc2c(c1)C(C)Cc1c(Cl)ncnc1N2C (stereo not given) . Reported TGI?
Reply: 34

Task item: Quick one: CCCCCCCCCCCCOC1C(C(COC2OC(C3COC(C)(C)O3)C3OC(C)(C)OC23)NC(=O)NS(=O)(=O)c2ccccc2)OC2OC(C)(C)OC21 (stereo not given)
Reply: 11.1

Task item: Quick one: CC(C)COCC(CN(Cc1ccccc1)c1ccccc1)N1CCCC1 (stereo not given)
Reply: 18.2

Task item: Quick one: COc1cccc2c1C(=O)c1c(O)c3c(c(O)c1C2=O)C[C@@](O)(C(=O)CO)C[C@@H]3O[C@H]1C[C@H](N)[C@@H](O)[C@H](C)O1
Reply: 3.3

Task item: Quick one: CNCCNc1c2c(c(NCCNC)c3[nH]ccc13)C(=O)c1ccccc1C2=O
Reply: 1.65

---

# Test system: MDA-N
# measurement-description: NCI tumour cell line growth inhibition, 48 h
Would you mind telling me the reported TGI of each entry?

Task item: Entry under review: c1ccc2c(c1)cc1c3[nH]c4ccccc4c3ccn21 . Reported TGI?
Reply: > 10 µM

Task item: Quick one: COc1cccc(N2C(=O)/C(=C\c3ccccc3)SC2c2cc(OC)c(OC)c(OC)c2)c1 (stereo not given)
Reply: 40.5 µM

Task item: Quick one: CC(C)(C)NCC(O)c1ccc(O)c(CO)n1 (stereo not given)
Reply: > 100 µM

Task item: Quick one: CC(=O)OCC(=O)[C@@]12OC(C)(C)O[C@@H]1C[C@H]1[C@@H]3CC=C4C[C@@H](O)CC[C@]4(C)[C@H]3CC[C@@]12C
Reply: > 100 µM

Task item: Quick one: C/C=C(\C)C(=O)OC1C(C)=C2C(C1OC(=O)CCCC)C(C)(OC(C)=O)CC(OC(=O)CCCC)C1(O)C2OC(=O)C1(C)O (stereo not given)
Reply: > 100 µM

Task item: Quick one: NC(=S)N/N=C1/CCCC2CCCC[C@@H]12 (stereo not given in full)
Reply: > 100 µM

Task item: Quick one: C/C(=N\NC(=O)c1ccncc1)c1ccccc1F
Reply: > 10 µM

Task item: Quick one: Nc1ccc(S(=O)(=O)Nc2ccc(Nc3c4ccccc4nc4ccccc34)cc2)cc1
Reply: 22.8 µM

Task item: Quick one: Nc1ccc(CCSSCCc2ccc(N)cc2)cc1
Reply: > 79.6 µM

Task item: Quick one: NC(=O)C1Cc2cc3c(cc21)OCO3 (stereo not given)
Reply: > 100 µM

---

# System: TK-10 renal
# measurement-description: NCI tumour cell line growth inhibition, 48 h
Would you mind telling me the reported TGI of each entry?

Task item: Field: TGI (TK-10 renal). Entry: CN(C)CCCNc1c(C#N)[n+]([O-])c2cc(Cl)ccc2[n+]1[O-]
Reply: > 39.9 µM

Task item: Quick one: CN(C)CCNC(=O)c1cccc2[nH]c(-c3cccnc3)nc12
Reply: 53.5 µM

Task item: Quick one: O=C(NC1C=Nc2ccc([N+](=O)[O-])cc2NC1=O)c1cc(Cl)cc([N+](=O)[O-])c1 (stereo unspecified)
Reply: > 100 µM

Task item: Quick one: COC(=O)NN=C1C(C)(C)C(=O)C1(C)C
Reply: > 100 µM

Task item: Quick one: N#Cc1cc(-c2nc3c(F)cccc3s2)ccc1N
Reply: > 100 µM

Task item: Quick one: CN(N)/N=N/c1nc[nH]c1[N+](=O)[O-]
Reply: > 100 µM

Taken from PubChem BioAssay (NCI).
